# Tested on: MHH-CALL-4 cells
# experimental.details: Cytotoxicity assay (resazurin, 72 hours)
# Format: cell-based
# Set-up: unit not given beside the values
# conditions.used: area under the dose-response curve
assay.metric: AUC
Field format: numeric only.

Per the record, CCS(=O)(=O)N1CC(CC#N)(n2cc(-c3nc(Nc4ccc(C(=O)N5CCC6(CCN(c7ccc(C8CCC(=O)NC8=O)cc7)CC6)C5)cc4)nc4[nH]ccc34)cn2)C1 (stereo not drawn) has AUC of 180

Per the record, CCS(=O)(=O)N1CC(CC#N)(n2cc(-c3nc(Nc4ccc(C(=O)NCCCN5CCN(c6ccc(C7CCC(=O)NC7=O)cc6)CC5)cc4)nc4[nH]ccc34)cn2)C1 (stereo not drawn) has AUC of 114

Per the record, CCS(=O)(=O)N1CC(CC#N)(n2cc(-c3nc(Nc4ccc(C(=O)NCCCNC(=O)COc5cccc(C6CCC(=O)NC6=O)c5)cc4)nc4[nH]ccc34)cn2)C1 (stereo not drawn) has AUC of 185

---

Examples of compounds with documented Target Protein Degradation (% remaining at 100 nM, 24 h) JAK1 follow.
# target.or.system: JAK1 (Homo sapiens)
# Construct: endogenous in cells; host or cells: MHH-CALL-4
# Sequence (P23458 whole entry): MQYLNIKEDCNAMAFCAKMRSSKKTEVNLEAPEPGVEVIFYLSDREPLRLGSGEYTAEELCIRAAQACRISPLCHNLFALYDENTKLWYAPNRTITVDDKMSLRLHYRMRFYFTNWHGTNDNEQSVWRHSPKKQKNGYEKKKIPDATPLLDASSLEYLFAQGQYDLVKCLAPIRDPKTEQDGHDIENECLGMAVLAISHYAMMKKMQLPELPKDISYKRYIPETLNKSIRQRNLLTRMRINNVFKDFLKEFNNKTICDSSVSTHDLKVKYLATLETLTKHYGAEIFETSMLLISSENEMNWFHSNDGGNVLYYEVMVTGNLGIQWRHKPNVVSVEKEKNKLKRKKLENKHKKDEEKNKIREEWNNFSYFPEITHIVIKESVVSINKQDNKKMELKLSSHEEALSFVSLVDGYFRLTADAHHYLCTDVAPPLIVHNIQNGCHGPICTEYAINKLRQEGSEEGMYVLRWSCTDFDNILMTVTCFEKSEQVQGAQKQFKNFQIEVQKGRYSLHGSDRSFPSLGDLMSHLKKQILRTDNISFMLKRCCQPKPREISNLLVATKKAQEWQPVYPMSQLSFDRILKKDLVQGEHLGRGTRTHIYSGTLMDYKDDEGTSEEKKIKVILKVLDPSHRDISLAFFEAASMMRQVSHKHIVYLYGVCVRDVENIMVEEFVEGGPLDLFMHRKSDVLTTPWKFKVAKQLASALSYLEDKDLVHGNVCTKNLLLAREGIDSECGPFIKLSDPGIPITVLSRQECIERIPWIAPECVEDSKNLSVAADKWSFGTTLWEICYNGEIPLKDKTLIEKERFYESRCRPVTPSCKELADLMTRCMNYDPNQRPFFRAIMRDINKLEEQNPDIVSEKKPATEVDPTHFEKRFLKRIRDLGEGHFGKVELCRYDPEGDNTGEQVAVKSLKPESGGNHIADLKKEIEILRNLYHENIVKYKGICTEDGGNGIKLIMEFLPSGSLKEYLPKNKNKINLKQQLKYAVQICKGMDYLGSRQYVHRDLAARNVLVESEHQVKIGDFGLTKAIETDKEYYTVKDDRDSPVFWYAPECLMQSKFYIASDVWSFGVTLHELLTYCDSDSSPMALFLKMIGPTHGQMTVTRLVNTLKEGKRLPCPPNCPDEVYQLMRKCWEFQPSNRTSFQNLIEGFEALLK
# experimental.details: Western blot assay, JAK1 protein degradation
# Type: cell-based
# conditions.used: MHH-CALL-4 cells, vehicle control = 100%
Please respond with the number in % remaining and leave the unit unwritten.

compound	target.or.system	unit.string	reported.result
CCS(=O)(=O)C1CC(CC#N)(n2cc(-c3nc(Nc4ccc(C(=O)NC5CCN(c6ccc7c(c6)C(=O)N(C6CCC(=O)NC6=O)C7=O)CC5)cc4)nc4[nH]ccc34)cn2)C1 (centres unmarked)	JAK1 (Homo sapiens)	% remaining	64
CCS(=O)(=O)N1CC(CC#N)(n2cc(-c3nc(Nc4ccc(C(=O)NCCCCCCNc5cccc(C6CCC(=O)NC6=O)c5)cc4)nc4[nH]ccc34)cn2)C1 (centres unmarked)	JAK1 (Homo sapiens)	% remaining	94
N#CC[C@H](C1CCCC1)n1cc(-c2nc(Nc3ccc(C(=O)NCCCCOc4ccc(C5CCC(=O)NC5=O)cc4)cc3)nc3[nH]ccc23)cn1 (some centres unmarked)	JAK1 (Homo sapiens)	% remaining	118
N#CC[C@H](C1CCCC1)n1cc(-c2nc(Nc3ccc(C(=O)NCCN4CCN(c5ccc6c(c5)C(=O)N(C5CCC(=O)NC5=O)C6=O)CC4)cc3)nc3[nH]ccc23)cn1 (some centres unmarked)	JAK1 (Homo sapiens)	% remaining	72

Continue with the compound presented below.
Kindly note: JAK1 (Homo sapiens), CCCn1cc(-c2nc(Nc3ccc(C(=O)NCCCN4CCN(c5ccc(C6CCC(=O)NC6=O)cc5)CC4)cc3)nc3[nH]ccc23)cn1 (centres unmarked) , Target Protein Degradation (% remaining at 100 nM, 24 h) JAK1 value reported: 104

---

# target.or.system: IKZF1 (Homo sapiens)
# Construct: endogenous in cells; host or cells: MHH-CALL-4
# Sequence (Q13422 whole entry): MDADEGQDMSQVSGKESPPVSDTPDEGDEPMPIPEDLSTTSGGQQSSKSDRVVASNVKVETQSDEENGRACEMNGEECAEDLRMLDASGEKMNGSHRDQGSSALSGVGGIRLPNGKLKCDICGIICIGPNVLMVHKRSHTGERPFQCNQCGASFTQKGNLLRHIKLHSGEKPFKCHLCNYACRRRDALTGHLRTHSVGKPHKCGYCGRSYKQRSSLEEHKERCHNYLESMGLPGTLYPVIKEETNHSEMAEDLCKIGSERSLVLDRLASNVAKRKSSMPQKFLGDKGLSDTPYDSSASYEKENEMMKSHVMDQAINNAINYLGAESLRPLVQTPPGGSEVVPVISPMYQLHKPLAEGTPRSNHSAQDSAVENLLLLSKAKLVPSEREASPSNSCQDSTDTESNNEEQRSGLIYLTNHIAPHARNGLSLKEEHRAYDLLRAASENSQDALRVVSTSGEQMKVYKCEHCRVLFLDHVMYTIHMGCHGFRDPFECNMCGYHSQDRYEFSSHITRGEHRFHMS
# experimental.details: Western blot assay, IKZF1 neosubstrate degradation
# Assay type: cell-based
# conditions.used: MHH-CALL-4 cells, vehicle control = 100%
Examples of compounds with documented Neosubstrate Degradation (% remaining at 100 nM, 24 h) IKZF1 follow.

Per the record, CCS(=O)(=O)N1CC(CC#N)(n2cc(-c3nc(Nc4ccc(C(=O)NCCNC(=O)COc5ccc(C6CCC(=O)NC6=O)cc5)cc4)nc4[nH]ccc34)cn2)C1 (stereo not shown) has Neosubstrate Degradation (% remaining at 100 nM, 24 h) IKZF1 of 96 % remaining

Per the record, CCS(=O)(=O)N1CC(CC#N)(n2cc(-c3nc(Nc4ccc(C(=O)NCCCCOc5ccc(C6CCC(=O)NC6=O)cc5)cc4)nc4[nH]ccc34)cn2)C1 (stereo not shown) has Neosubstrate Degradation (% remaining at 100 nM, 24 h) IKZF1 of 79 % remaining

Per the record, CCS(=O)(=O)N1CC(CC#N)(n2cc(-c3nc(Nc4ccc(C(=O)NCCCN5CCN(c6ccc(C7CCC(=O)NC7=O)cc6)CC5)cc4)nc4[nH]ccc34)cn2)C1 (stereo not shown) has Neosubstrate Degradation (% remaining at 100 nM, 24 h) IKZF1 of 87 % remaining

Per the record, CCS(=O)(=O)N1CC(CC#N)(n2cc(-c3nc(Nc4ccc(C(=O)NCCCNC(=O)COc5ccc(C6CCC(=O)NC6=O)cc5)cc4)nc4[nH]ccc34)cn2)C1 (stereo not shown) has Neosubstrate Degradation (% remaining at 100 nM, 24 h) IKZF1 of 105 % remaining
